assay_overview: gradient 5% acetonitrile 3 min, to 50% in 2 min, to 85% in 15 min, held 3 min, 100 µL/min
recorded_conditions: column: Zorbax Extend-C18 2.1 x 50 mm; eluents: water / acetonitrile, 0.1% formic acid
experimental_readout: RP-LC retention time (s)
Give the value, in units of s, as a plain number.

Record excerpt, results attached:
INSERT INTO assay_data (structure_as_smiles, data_value) VALUES
  ('Cc1cc2[nH]c(C(=O)Nc3ccc(F)cc3F)c(CN3CCOCC3)c2s1', 710),
  ('O=C(NCCCn1nc(-c2cccnc2)ccc1=O)c1ccc(F)cc1F', 569),
  ('CCn1nccc1C(=O)NC1CCCCC1', 718),
  ('O=C(NCc1ccco1)c1cccc(Nc2c(-c3ccc(Cl)cc3)nc3cnccn23)c1', 826);

Inquiry: Give its RP-LC retention time value. Item: "Cc1cc(F)ccc1NS(=O)(=O)c1cc(-c2nc(C(C)(C)C)cs2)cs1"
Reply text: 1260

---

assay_overview: gradient 5% acetonitrile 3 min, to 50% in 2 min, to 85% in 15 min, held 3 min, 100 µL/min
recorded_conditions: column: Zorbax Extend-C18 2.1 x 50 mm; eluents: water / acetonitrile, 0.1% formic acid
Each record here notes measured RP-LC retention time.
Write the number in s without appending the unit.

Worked examples, 10 compounds total:
INSERT INTO assay_data (compound, experimental_readout, readout_unit, data_value) VALUES
  ('COc1ccc2c(c1)c(CN1CCC(N3C[C@H](OC)[C@@H]3c3cccnc3)CC1)cn2C', 'RP-LC retention time', 's', 579),
  ('Cc1nc(-c2ccccc2)sc1C(=O)Nc1nc(-c2ccccc2Cl)cs1', 'RP-LC retention time', 's', 1310),
  ('Cc1ccc(CNC(=O)C2CCN(c3cn[nH]c(=O)c3)C2)o1 (stereo not given)', 'RP-LC retention time', 's', 626),
  ('CC1CCCN(S(=O)(=O)c2ccc(-c3nnc(C4CCCC4)o3)o2)C1 (stereo not given)', 'RP-LC retention time', 's', 1080),
  ('CCOC(=O)C1CCN(Cc2nnn(-c3ccccc3)c2C)CC1', 'RP-LC retention time', 's', 614),
  ('COCCCNC(=O)C1CCN(Cc2cc3ccccc3n2Cc2ccccc2C)CC1', 'RP-LC retention time', 's', 718),
  ('Cc1nc(N2CCOCC2)c2c(C(=O)Nc3ccccc3F)c(C)oc2n1', 'RP-LC retention time', 's', 805),
  ('O=C(NC1CCCCC1)N1CCC(c2noc(-c3cccnc3)n2)C1 (stereo not given)', 'RP-LC retention time', 's', 749),
  ('CCCNC(=O)C1CCN(c2ccc(SCC(=O)Nc3ccc(CC)cc3)nn2)CC1', 'RP-LC retention time', 's', 694),
  ('CN1C(=O)C2(CCN(C(=O)c3ccccc3F)C2)c2ccccc21 (stereo not given)', 'RP-LC retention time', 's', 750);

Inquiry: Value lookup for RP-LC retention time; key = CN1c2cc(C(=O)NCCCc3ccccc3)ccc2C(=O)N2CCCCC21 (stereo not given)
Reply text: 885

Inquiry: What measured RP-LC retention time goes with CC1Oc2ccc(S(=O)(=O)N3CCC(C(=O)Nc4ccc(C(C)C)cc4)CC3)cc2NC1=O (stereo not given) ?
Reply text: 916

---

assay_overview: gradient 5% acetonitrile 3 min, to 50% in 2 min, to 85% in 15 min, held 3 min, 100 µL/min
recorded_conditions: column: Zorbax Extend-C18 2.1 x 50 mm; eluents: water / acetonitrile, 0.1% formic acid
Hi all, reminder that labels come from RP-LC retention time, split as zone 1 = under 700 s, zone 2 = from 700 s up to 800 s, zone 3 = 800 s and over

Some solved entries appear below for comparison.
INSERT INTO results (compound, class_assignment) VALUES
  ('Cn1cc(CN2CCC(C(=O)N3CCN(c4ccccn4)CC3)CC2)c2cc(Cl)ccc21', 'zone 1'),
  ('COc1ccc(NC(=O)C2CCCN(S(=O)(=O)c3cc(-c4noc(C)n4)cs3)C2)cc1 (stereo not given)', 'zone 3'),
  ('Cc1ccc(NC(=O)c2ccc3c(c2)N(CC(=O)N2CCCC2)C(=O)CO3)nc1', 'zone 1');

Inquiry: Into which bin does this compound go? "COCCN1C(=O)CCc2cc(NS(=O)(=O)c3ccccc3Br)ccc21"
Reply text: zone 2

Inquiry: Assign a category based on measured RP-LC retention time for "O=C(NCCc1ccco1)c1ccc2c(c1)nc1n2CCCCC1" and give only the class name.
Reply text: zone 1

Inquiry: Which bin, given its RP-LC retention time, does "COc1ccc(C(=O)N2CCC3(CC2)N=C(c2ccc(Cl)cc2)NO3)cc1" occupy?
Reply text: zone 3

---

assay_overview: gradient 5% acetonitrile 3 min, to 50% in 2 min, to 85% in 15 min, held 3 min, 100 µL/min
recorded_conditions: column: Zorbax Extend-C18 2.1 x 50 mm; eluents: water / acetonitrile, 0.1% formic acid
Binning of RP-LC retention time into classes: lower segment = under 700 s, middle segment = from 700 s up to 900 s, upper segment = 900 s and over

Example entries and their recorded answers appear below.
INSERT INTO measurements (compound, class_assignment) VALUES
  ('O=C(Cn1cc(-c2ccc(F)cc2)oc1=O)NCc1ccc(N2CCCCC2)cc1', 'lower segment'),
  ('Cc1ccn2c(Nc3ccc4c(c3)OCO4)c(-c3ccc(Cl)cc3)nc2c1', 'middle segment'),
  ('O=C(Nc1c(-c2ccccc2)nc2ccc(Cl)cn12)c1cccs1', 'middle segment'),
  ('CCCCNC(=O)c1cn(-c2cc(-c3nc(C)no3)ccn2)cn1', 'middle segment'),
  ('NC(N)=Nc1nc2ccc([N+](=O)[O-])cc2[nH]1', 'lower segment'),
  ('Cc1noc(-c2ccccc2OC2CCNC2)n1 (stereo not given)', 'lower segment'),
  ('CCCN1CCN(C(=O)CCc2c(C)c(C(=O)OCC)n(C)c2C)CC1', 'lower segment'),
  ('Cc1cc(C)cc(NC(=O)c2cn(-c3cc(N4CCCC4)ncn3)cn2)c1', 'upper segment');

Field: next compound
Inquiry: Form: Item = "CCCCNC(=O)CSc1nnc2c3cc(-c4ccccc4)nn3ccn12" ; Class = ?
Reply text: middle segment

---

assay_overview: gradient 5% acetonitrile 3 min, to 50% in 2 min, to 85% in 15 min, held 3 min, 100 µL/min
recorded_conditions: column: Zorbax Extend-C18 2.1 x 50 mm; eluents: water / acetonitrile, 0.1% formic acid
experimental_readout: RP-LC retention time
Returns: string containing the number followed by the unit.

INSERT INTO assay_data (compound, experimental_readout, data_value) VALUES
  ('COc1ccc(NC(=O)CCS(=O)(=O)Cc2ccccc2)c2ccccc12', 'RP-LC retention time', '688 s'),
  ('CN(Cc1nc(Cn2ccn3nc(-c4ccc(F)cc4)cc3c2=O)no1)C1CCCCC1', 'RP-LC retention time', '704 s'),
  ('Cc1ccc(S(=O)(=O)N2CCC(N3CCN(Cc4ccccc4)C(=O)C3=O)CC2)cc1Cl', 'RP-LC retention time', '799 s');

Inquiry: # lookup: RP-LC retention time of Cc1cccc(CNC(=O)C2CCN(C(=O)C3Sc4ccccc4NC3=O)CC2)c1 (stereo not given)
Reply text: 762 s

Inquiry: # input compound: CC(NC(=O)C1CC(=O)N(c2ccc3c(c2)CCN3C(=O)C2CC2)C1)c1ccccc1 (stereo not given) ; wanted: its RP-LC retention time
Reply text: 740 s

---

Examples of compounds with documented RP-LC retention time follow.
assay_overview: gradient 5% acetonitrile 3 min, to 50% in 2 min, to 85% in 15 min, held 3 min, 100 µL/min
recorded_conditions: column: Zorbax Extend-C18 2.1 x 50 mm; eluents: water / acetonitrile, 0.1% formic acid
A number alone suffices; assume s.

INSERT INTO results (compound, data_value) VALUES
  ('CCC(C)NC(=O)Cn1c(=O)c2cnc(-c3ccccc3)nc2n(C)c1=O (centres undefined)', 854),
  ('COC(=O)c1ccc(NS(=O)(=O)c2cc(-c3c(C)noc3NC(C)=O)ccc2OC)cc1', 720),
  ('CSc1ccc(-c2nc3cnccn3c2Nc2ccc(C)cc2C)cc1', 644),
  ('Cc1cccc(-c2nc(-c3ccc(S(=O)(=O)N4CCOCC4)cc3)no2)c1', 1080);

Inquiry: Entry CC(NC(=O)Cn1cc(C(=O)C(=O)N2CCOCC2)c2ccccc21)c1ccc2c(c1)OCCCO2 (centres undefined) : reported RP-LC retention time = ?
Reply text: 787

Inquiry: Quick one: RP-LC retention time of COc1ccc(CN2CC(C(=O)N3CCCN(c4cc(=O)n(C)c(=O)n4C)CC3)CC2=O)cc1 (centres undefined) ?
Reply text: 629

Inquiry: Given CCN(CC)CCNC(=O)C1CCCN(c2ncc(-c3ccc(F)cc3)cn2)C1 (centres undefined) , state its recorded RP-LC retention time.
Reply text: 688

Inquiry: Given the entry "COC(=O)C1=C(C)NC(C)=C(C(=O)OC)C1c1cccc(NC(=O)NCCCN2CCC(c3cccc(OC)c3)CC2)c1" , report its measured RP-LC retention time.
Reply text: 833

Inquiry: Requested read-out: RP-LC retention time. Entry: "CCOc1ccc(NC(=O)COc2cc(C)nc(N3CCCC3)n2)cc1"
Reply text: 649

Inquiry: So what does the record say about RP-LC retention time for "COc1ccc(-c2cc3c(=O)n(Cc4ccc(C)cc4C)ccn3n2)cc1OC" ?
Reply text: 1020

Inquiry: Find the recorded RP-LC retention time belonging to "COC(=O)Cn1nc(-c2nc(-c3ccc(C)cc3)no2)ccc1=O" and report it.
Reply text: 928

Inquiry: Find the recorded RP-LC retention time belonging to "Nc1nc(SCC(=O)Nc2cccc(C(F)(F)F)c2)n[nH]1" and report it.
Reply text: 637

Inquiry: # get_value(readout='RP-LC retention time', item= "CCN1CCN(c2ccc(NC(=O)c3ccc(C)c(N4CCCC4=O)c3)cn2)C1=O" )
Reply text: 600
